# target_under_test: KDM5A (Homo sapiens)
# Construct: Full length KDM5A enzyme was expressed and purified inhouse; made in house
# Sequence (P29375 whole entry): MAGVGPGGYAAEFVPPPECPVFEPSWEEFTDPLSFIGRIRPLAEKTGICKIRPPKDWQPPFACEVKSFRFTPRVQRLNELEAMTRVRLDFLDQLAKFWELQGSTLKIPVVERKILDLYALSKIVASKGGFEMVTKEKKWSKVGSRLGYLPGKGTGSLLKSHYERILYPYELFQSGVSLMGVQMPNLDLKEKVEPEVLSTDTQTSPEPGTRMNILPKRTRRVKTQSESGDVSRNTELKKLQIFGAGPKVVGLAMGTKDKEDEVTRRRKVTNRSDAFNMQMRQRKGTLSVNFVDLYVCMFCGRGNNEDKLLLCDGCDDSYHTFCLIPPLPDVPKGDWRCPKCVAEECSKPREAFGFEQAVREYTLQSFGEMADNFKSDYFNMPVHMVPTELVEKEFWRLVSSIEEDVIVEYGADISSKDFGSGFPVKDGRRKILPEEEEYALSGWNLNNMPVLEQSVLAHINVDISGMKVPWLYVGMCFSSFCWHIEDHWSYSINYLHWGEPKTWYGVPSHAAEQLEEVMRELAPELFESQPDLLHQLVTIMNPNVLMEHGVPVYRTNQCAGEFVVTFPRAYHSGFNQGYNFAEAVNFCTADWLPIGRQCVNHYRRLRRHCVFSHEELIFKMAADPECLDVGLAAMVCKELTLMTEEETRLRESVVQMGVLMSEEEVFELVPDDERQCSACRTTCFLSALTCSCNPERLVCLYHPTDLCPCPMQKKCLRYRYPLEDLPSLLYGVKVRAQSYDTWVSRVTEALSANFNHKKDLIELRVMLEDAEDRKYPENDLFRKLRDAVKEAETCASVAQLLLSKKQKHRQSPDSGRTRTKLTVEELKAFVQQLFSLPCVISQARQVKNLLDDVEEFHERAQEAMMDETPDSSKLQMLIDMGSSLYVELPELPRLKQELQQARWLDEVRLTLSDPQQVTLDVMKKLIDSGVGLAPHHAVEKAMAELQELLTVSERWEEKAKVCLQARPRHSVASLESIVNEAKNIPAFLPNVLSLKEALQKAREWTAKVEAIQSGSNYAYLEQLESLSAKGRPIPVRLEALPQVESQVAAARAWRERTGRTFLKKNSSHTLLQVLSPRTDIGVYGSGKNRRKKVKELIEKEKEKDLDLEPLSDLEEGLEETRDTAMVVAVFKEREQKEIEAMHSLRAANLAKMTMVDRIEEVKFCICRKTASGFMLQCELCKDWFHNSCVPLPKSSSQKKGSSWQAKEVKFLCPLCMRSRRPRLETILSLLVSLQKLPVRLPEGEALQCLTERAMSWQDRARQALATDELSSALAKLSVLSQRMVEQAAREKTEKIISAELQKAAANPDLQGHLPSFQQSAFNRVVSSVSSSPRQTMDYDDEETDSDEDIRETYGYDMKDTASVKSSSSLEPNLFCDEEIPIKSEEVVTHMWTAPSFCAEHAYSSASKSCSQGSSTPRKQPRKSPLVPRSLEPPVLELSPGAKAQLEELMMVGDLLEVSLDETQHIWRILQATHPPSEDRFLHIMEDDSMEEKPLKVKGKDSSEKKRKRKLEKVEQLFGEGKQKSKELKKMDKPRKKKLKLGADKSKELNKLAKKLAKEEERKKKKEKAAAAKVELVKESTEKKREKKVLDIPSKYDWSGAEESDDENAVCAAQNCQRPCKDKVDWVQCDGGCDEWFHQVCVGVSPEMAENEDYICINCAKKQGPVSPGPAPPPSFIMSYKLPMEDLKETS
# assay_procedure: KDM5 enzyme assay, KDM5A HTRF (Example 463)
# Format: biochemical
# assay_setup: compounds of Examples 1-432; read-out: Example 463 Assay KDM5A HTRF IC50
observation_type: IC50 (nM)

Example cases with answers are listed next.
1) CC(C)c1c(C2=CCNC2)[nH]c2c(C#N)cnn2c1=O = 19
2) Cc1ccc(-c2[nH]c3c(C#N)cnn3c(=O)c2C(C)C)cc1C#N = 14
3) CC(C)c1c(-c2cccc(-c3cccc(C#N)c3)c2)[nH]c2c(C#N)cnn2c1=O = 39
4) C=CC(=O)N1CC=C(c2[nH]c3c(C#N)cnn3c(=O)c2C(C)C)CC1 = 21

P. CC(C)c1c(-c2cnn(C3CCC3)c2)[nH]c2c(C#N)cnn2c1=O
Q. CC(C)c1c(-c2c[nH]nc2C(F)(F)F)[nH]c2c(C#N)cnn2c1=O
Query :: Kindly identify which of P and Q has the larger recorded IC50 value. // output: label of the selected item
Result :: Q
(Q: 32 nM, P: 18 nM)
